test: chemical genetic growth profiling, strain panel (AID 1159580);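 further: tested at 20 µM; growth read once vehicle control cultures reached saturation at 30 °C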; settings: S. cerevisiae deletion strains, growth OD, locus YKL190W, strain CNB1, stronger effect = lower value
The whole screen tested about 5,500 compounds, of which about 2,000 (36%) were called active. About 18% were inconclusive and are not listed. Some of the results follow.
Define the label as YES when normalized growth is strictly less than 0.9 and as NO in all remaining cases.

These solved cases illustrate the format of a correct answer.
[[record]]
molecule = "Nc1ccccc1C(=O)N/N=C\\c1cccc2ccccc12"
label_class = "NO"

[[record]]
molecule = "O=c1[nH]cc(F)c(=O)[nH]1"
label_class = "YES"

[[record]]
molecule = "COC1=C[C@@H]2[C@@H]3Cc4ccc(OC)c(O)c4[C@]2(CCN3C)CC1=O"
label_class = "NO"

[[record]]
molecule = "Cc1cc(O)c2c(c1)Cc1cccc(O)c1C2=O"
label_class = "NO"


Item Nc1ccccc1C(=O)CC(N)C(=O)O (stereo not given) : normalized growth beneath 0.9, strictly? NO
